Where do these numbers come from? They come from ChEMBL document CHEMBL2385011.

Listing: CC50 of selected compounds
- assay explanation: Cytotoxicity against human C8166 cells
- Assay type: cell-based
value kind: CC50

INSERT INTO results (compound, reported_value) VALUES
  ('CCN1C(=O)C2(CCc3cc(OC)ccc32)C(=O)N(c2ccccc2)c2cc(C(F)(F)F)ccc21 (configuration not stated)', '> 4 µM'),
  ('CCN1C(=O)C2(CCc3cc(O)ccc32)C(=O)N(c2ccccc2)c2cc(C(F)(F)F)ccc21 (configuration not stated)', '32 µM'),
  ('CN1C(=O)C2(CCc3cc(N)ccc32)C(=O)N(c2ccccc2)c2cc(C(F)(F)F)ccc21 (configuration not stated)', '> 15 µM'),
  ('CCN1C(=O)N(c2ccc(C)cc2)C(=O)N(c2ccccc2)c2cc(C(F)(F)F)ccc21', '> 6.5 µM'),
  ('CCN1C(=O)N(c2cccc(C(=O)NC)c2)C(=O)N(c2ccccc2)c2cc(C(F)(F)F)ccc21', '> 22 µM'),
  ('CCN1C(=O)C2(CCc3ccc(O)cc32)C(=O)N(c2ccccc2)c2cc(C(F)(F)F)ccc21 (configuration not stated)', '> 27 µM'),
  ('CCN1C(=O)N(c2ccc(OC)cc2)C(=O)N(c2ccccc2)c2cc(C(F)(F)F)ccc21', '> 16 µM'),
  ('CCN1C(=O)N(c2cccc(OC)c2)C(=O)N(c2ccccc2)c2cc(C(F)(F)F)ccc21', '> 20 µM'),
  ('CCN1C(=O)N(c2cc(C)c(O)c(Cl)c2)C(=O)N(c2ccccc2)c2cc(C(F)(F)F)ccc21', '> 10 µM'),
  ('CCN1C(=O)N(c2ccccc2)C(=O)N(c2ccccc2)c2cc(C(F)(F)F)ccc21', '> 4 µM'),
  ('CCN1C(=O)N(c2cccc(C(=O)NCCN3CCOCC3)c2)C(=O)N(c2ccccc2)c2cc(C(F)(F)F)ccc21', '> 19 µM'),
  ('CCN1C(=O)N(c2ccc(O)c(C)c2)C(=O)N(c2ccccc2)c2cc(C(F)(F)F)ccc21', '17 µM'),
  ('CCN1C(=O)C2(CCc3c(O)cccc32)C(=O)N(c2ccccc2)c2cc(C(F)(F)F)ccc21 (configuration not stated)', '> 21 µM'),
  ('CN1C(=O)C2(CCc3cc(NC(=O)[C@@H]4CCCN4)ccc32)C(=O)N(c2ccccc2)c2cc(C(F)(F)F)ccc21 (some centres not stated)', '11 µM'),
  ('CCN1C(=O)N(c2ccc(O)cc2)C(=O)N(c2ccccc2)c2cc(C(F)(F)F)ccc21', '35 µM'),
  ('CCN1C(=O)C2(CCc3ccccc32)C(=O)N(c2ccccc2)c2cc(C(F)(F)F)ccc21 (configuration not stated)', '> 16 µM'),
  ('CCN1C(=O)N(c2ccc(C(=O)NC)cc2)C(=O)N(c2ccccc2)c2cc(C(F)(F)F)ccc21', '31 µM');

###

- Test system: Human immunodeficiency virus 1
- assay explanation: Antiviral activity against HIV1 infected in human C8166 cells expressing LTR after 3 days by luciferase reporter gene assay
- Format: functional, organism-based
- run parameters: Human immunodeficiency virus 1, C8166, 72 h
value kind: log10 of EC50 (log10 of the value in µM)

INSERT INTO results (compound, test_target, value_kind, reported_value) VALUES
  ('CCN1C(=O)C2(CCc3ccccc32)C(=O)N(c2ccccc2)c2cc(C(F)(F)F)ccc21 (stereo not drawn)', 'Human immunodeficiency virus 1', 'log10 of EC50', 0.20),
  ('CCN1C(=O)N(c2cc(C)c(O)c(Cl)c2)C(=O)N(c2ccccc2)c2cc(C(F)(F)F)ccc21', 'Human immunodeficiency virus 1', 'log10 of EC50', -0.82),
  ('CCN1C(=O)C2(CCc3cc(O)ccc32)C(=O)N(c2ccccc2)c2cc(C(F)(F)F)ccc21 (stereo not drawn)', 'Human immunodeficiency virus 1', 'log10 of EC50', -0.16),
  ('CCN1C(=O)N(c2cccc(C(=O)NCCN3CCOCC3)c2)C(=O)N(c2ccccc2)c2cc(C(F)(F)F)ccc21', 'Human immunodeficiency virus 1', 'log10 of EC50', 0.04),
  ('CCN1C(=O)C2(CCc3c(O)cccc32)C(=O)N(c2ccccc2)c2cc(C(F)(F)F)ccc21 (stereo not drawn)', 'Human immunodeficiency virus 1', 'log10 of EC50', -0.11),
  ('CCN1C(=O)N(c2ccc(C)cc2)C(=O)N(c2ccccc2)c2cc(C(F)(F)F)ccc21', 'Human immunodeficiency virus 1', 'log10 of EC50', -0.27),
  ('CCN1C(=O)N(c2ccccc2)C(=O)N(c2ccccc2)c2cc(C(F)(F)F)ccc21', 'Human immunodeficiency virus 1', 'log10 of EC50', -0.22),
  ('CCN1C(=O)N(c2ccc(C(=O)NC)cc2)C(=O)N(c2ccccc2)c2cc(C(F)(F)F)ccc21', 'Human immunodeficiency virus 1', 'log10 of EC50', -0.32),
  ('CCN1C(=O)C(c2ccccc2)C(=O)N(c2ccccc2)c2cc(C(F)(F)F)ccc21 (stereo not drawn)', 'Human immunodeficiency virus 1', 'log10 of EC50', 0.41),
  ('CCN1C(=O)N(c2ccc(O)c(C)c2)C(=O)N(c2ccccc2)c2cc(C(F)(F)F)ccc21', 'Human immunodeficiency virus 1', 'log10 of EC50', -0.59),
  ('CN1C(=O)C2(CCc3cc(N)ccc32)C(=O)N(c2ccccc2)c2cc(C(F)(F)F)ccc21 (stereo not drawn)', 'Human immunodeficiency virus 1', 'log10 of EC50', -0.39),
  ('CCN1C(=O)N(c2ccc(OC)cc2)C(=O)N(c2ccccc2)c2cc(C(F)(F)F)ccc21', 'Human immunodeficiency virus 1', 'log10 of EC50', -0.14),
  ('CCN1C(=O)N(c2cccc(C(=O)NC)c2)C(=O)N(c2ccccc2)c2cc(C(F)(F)F)ccc21', 'Human immunodeficiency virus 1', 'log10 of EC50', 0.08),
  ('CCN1C(=O)C2(CCc3ccc(O)cc32)C(=O)N(c2ccccc2)c2cc(C(F)(F)F)ccc21 (stereo not drawn)', 'Human immunodeficiency virus 1', 'log10 of EC50', 0.08),
  ('CCN1C(=O)N(c2cccc(OC)c2)C(=O)N(c2ccccc2)c2cc(C(F)(F)F)ccc21', 'Human immunodeficiency virus 1', 'log10 of EC50', 0.08),
  ('CCN1C(=O)C2(CCc3cc(OC)ccc32)C(=O)N(c2ccccc2)c2cc(C(F)(F)F)ccc21 (stereo not drawn)', 'Human immunodeficiency virus 1', 'log10 of EC50', -0.29),
  ('CN1C(=O)C2(CCc3cc(NC(=O)[C@@H]4CCCN4)ccc32)C(=O)N(c2ccccc2)c2cc(C(F)(F)F)ccc21 (stereo partly drawn)', 'Human immunodeficiency virus 1', 'log10 of EC50', -0.28),
  ('CCN1C(=O)N(c2ccc(O)cc2)C(=O)N(c2ccccc2)c2cc(C(F)(F)F)ccc21', 'Human immunodeficiency virus 1', 'log10 of EC50', -0.42);
